# Tested on: Cryptococcus neoformans
# assay_notes: Antimicrobial activity against Cryptococcus neoformans after 72 hrs by broth microdilution method
# Assay type: functional
The reader will find reported MIC80 values listed item by item below.
The reply should consist of the numeric value with the unit placed after it.

| compound | observed_property | endpoint_value |
| --- | --- | --- |
| OC(CN1CCN(CCCSc2nnc(-c3ccc(Br)cc3)o2)CC1)(Cn1cncn1)c1ccc(F)cc1F (configuration not stated) | MIC80 | 0.25 µg/mL |
| N#Cc1cccc(-c2nnc(SCCCN3CCN(CC(O)(Cn4cncn4)c4ccc(F)cc4F)CC3)o2)c1 (configuration not stated) | MIC80 | 0.25 µg/mL |
| CCC(C)n1ncn(-c2ccc(N3CCN(c4ccc(OCC5COC(Cn6cncn6)(c6ccc(Cl)cc6Cl)O5)cc4)CC3)cc2)c1=O (configuration not stated) | MIC80 | 0.125 µg/mL |
| COc1ccccc1-c1nnc(SCCCN2CCN(CC(O)(Cn3cncn3)c3ccc(F)cc3F)CC2)o1 (configuration not stated) | MIC80 | 4 µg/mL |
| OC(Cn1cncn1)(Cn1cncn1)c1ccc(F)cc1F | MIC80 | 1 µg/mL |
| OC(CN1CCN(CCCSc2nnc(-c3ccc(F)cc3)o2)CC1)(Cn1cncn1)c1ccc(F)cc1F (configuration not stated) | MIC80 | 0.25 µg/mL |

Task item: Any idea what its MIC80 is? The compound is Cc1cccc(-c2nnc(SCCCN3CCN(CC(O)(Cn4cncn4)c4ccc(F)cc4F)CC3)o2)c1 (configuration not stated)
Reply: 1 µg/mL

---

# Test system: Cryptococcus neoformans
# assay_notes: Antimicrobial activity against Cryptococcus neoformans after 72 hrs by broth microdilution method
# Type: functional
observed_property: log10(MIC80) (log10 of the value in µg/mL)
Values below are the log10 of the recorded MIC80, with µg/mL as the unit.

| compound | log10(MIC80) |
| --- | --- |
| OC(CN1CCN(CCCSc2nnc(-c3ccccc3Cl)o2)CC1)(Cn1cncn1)c1ccc(F)cc1F (stereo not drawn) | -0.60 |
| COc1cccc(-c2nnc(SCCCN3CCN(CC(O)(Cn4cncn4)c4ccc(F)cc4F)CC3)o2)c1 (stereo not drawn) | -0.60 |
| Cc1ccc(-c2nnc(SCCCN3CCN(CC(O)(Cn4cncn4)c4ccc(F)cc4F)CC3)o2)cc1 (stereo not drawn) | 0.00 |
| OC(CN1CCN(CCCSc2nnc(-c3ccc(Cl)cc3)o2)CC1)(Cn1cncn1)c1ccc(F)cc1F (stereo not drawn) | -1.20 |
| CC(=O)N1CCN(c2ccc(OCC3COC(Cn4ccnc4)(c4ccc(Cl)cc4Cl)O3)cc2)CC1 (stereo not drawn) [KETOCONAZOLE] | 0.60 |

// switching to the query compound
Task item: Need log10(MIC80) of OC(CN1CCN(CCCSc2nnc(-c3cccc(F)c3)o2)CC1)(Cn1cncn1)c1ccc(F)cc1F (stereo not drawn) , thanks.
Reply: -1.20

---

We begin with a simple list: items and their reported MIC80.
# Tested on: Aspergillus fumigatus
# assay_notes: Antimicrobial activity against Aspergillus fumigatus by broth microdilution method
# Format: functional

Examples with answers:
| molecule | MIC80 |
| --- | --- |
| N#Cc1cccc(-c2nnc(SCCCN3CCN(CC(O)(Cn4cncn4)c4ccc(F)cc4F)CC3)o2)c1 (stereo not given) | > 64 µg/mL |
| OC(CN1CCN(CCCSc2nnc(-c3ccccc3Br)o2)CC1)(Cn1cncn1)c1ccc(F)cc1F (stereo not given) | > 64 µg/mL |
| CCC(C)n1ncn(-c2ccc(N3CCN(c4ccc(OCC5COC(Cn6cncn6)(c6ccc(Cl)cc6Cl)O5)cc4)CC3)cc2)c1=O (stereo not given) | 1 µg/mL |

Task item: Using the record for OC(CN1CCN(CCCSc2nnc(-c3ccc(Cl)cc3)o2)CC1)(Cn1cncn1)c1ccc(F)cc1F (stereo not given) , report its MIC80.
Reply: > 64 µg/mL

Task item: Field request: MIC80 | item: C[C@@H](c1ncncc1F)[C@](O)(Cn1cncn1)c1ccc(F)cc1F
Reply: 0.0625 µg/mL

---

# Tested on: Candida albicans
# assay_notes: Antimicrobial activity against Candida albicans SC5314 after 24 hrs by broth microdilution method
# Type: functional
# particulars: SC5314, 24 h
MIC80 overview
API: value field is a number in µg/mL; no unit string.

Example entries and their recorded answers appear below.
| compound | MIC80 (µg/mL) |
| --- | --- |
| COc1cccc(-c2nnc(SCCCN3CCN(CC(O)(Cn4cncn4)c4ccc(F)cc4F)CC3)o2)c1 (stereo not given) | 0.25 |
| C[C@@H](c1ncncc1F)[C@](O)(Cn1cncn1)c1ccc(F)cc1F [VORICONAZOLE] | 0.0625 |

Task item: Could you tell me which MIC80 is on file for OC(CN1CCN(CCCSc2nnc(-c3ccccc3)o2)CC1)(Cn1cncn1)c1ccc(F)cc1F (stereo not given) ?
Reply: 0.0156

Task item: Fill blank: measured MIC80 of the compound O=[N+]([O-])c1ccccc1-c1nnc(SCCCN2CCN(CC(O)(Cn3cncn3)c3ccc(F)cc3F)CC2)o1 (stereo not given) is ____.
Reply: 0.125

Task item: What value of measured MIC80 is listed for N#Cc1cccc(-c2nnc(SCCCN3CCN(CC(O)(Cn4cncn4)c4ccc(F)cc4F)CC3)o2)c1 (stereo not given) ?
Reply: 0.125

---

# Tested on: Cryptococcus neoformans
# assay_notes: Antimicrobial activity against Cryptococcus neoformans after 72 hrs by broth microdilution method
# Format: functional
MIC80 values by entry
Response body: numeric value in µg/mL, unit text excluded.

Field: example entries. Status: answers known.
| compound | MIC80 (µg/mL) |
| --- | --- |
| OC(CN1CCN(CCCSc2nnc(-c3cccc(Cl)c3)o2)CC1)(Cn1cncn1)c1ccc(F)cc1F (configuration not stated) | 0.0625 |
| OC(CN1CCN(CCCSc2nnc(-c3cccc(Br)c3)o2)CC1)(Cn1cncn1)c1ccc(F)cc1F (configuration not stated) | 0.25 |

Task item: Quick one: MIC80 of Cc1ccccc1-c1nnc(SCCCN2CCN(CC(O)(Cn3cncn3)c3ccc(F)cc3F)CC2)o1 (configuration not stated) ?
Reply: 0.125

Task item: Entry OC(CN1CCN(CCCSc2nnc(-c3ccccc3)o2)CC1)(Cn1cncn1)c1ccc(F)cc1F (configuration not stated) has what MIC80?
Reply: 0.0625

Task item: Would you kindly share the measured MIC80 for O=[N+]([O-])c1ccccc1-c1nnc(SCCCN2CCN(CC(O)(Cn3cncn3)c3ccc(F)cc3F)CC2)o1 (configuration not stated) ?
Reply: 0.125

Task item: May I ask what MIC80 has been recorded for OC(CN1CCN(CCCSc2nnc(-c3ccccc3Br)o2)CC1)(Cn1cncn1)c1ccc(F)cc1F (configuration not stated) ?
Reply: 0.0625

Task item: Report MIC80 for C[C@@H](c1ncncc1F)[C@](O)(Cn1cncn1)c1ccc(F)cc1F [VORICONAZOLE] please.
Reply: 0.0156

Task item: Consider the compound O=[N+]([O-])c1ccc(-c2nnc(SCCCN3CCN(CC(O)(Cn4cncn4)c4ccc(F)cc4F)CC3)o2)cc1 (configuration not stated) and give its measured MIC80.
Reply: 0.25

Task item: Could you share which MIC80 value was measured for OC(CN1CCNCC1)(Cn1cncn1)c1ccc(F)cc1F (configuration not stated) ?
Reply: 4

Task item: Quick one: MIC80 for N#Cc1ccccc1-c1nnc(SCCCN2CCN(CC(O)(Cn3cncn3)c3ccc(F)cc3F)CC2)o1 (configuration not stated) ?
Reply: 0.25

Task item: Which measured MIC80 value corresponds to COc1ccc(-c2nnc(SCCCN3CCN(CC(O)(Cn4cncn4)c4ccc(F)cc4F)CC3)o2)cc1 (configuration not stated) ?
Reply: 0.25

Task item: Item under review: OC(CN1CCN(CCCSc2nnc(-c3ccccc3F)o2)CC1)(Cn1cncn1)c1ccc(F)cc1F (configuration not stated) . Reported MIC80?
Reply: 0.0625

---

# Tested on: Aspergillus fumigatus
# assay_notes: Antimicrobial activity against Aspergillus fumigatus by broth microdilution method
# Type: functional
observed_property: MIC80

// solved cases for MIC80 follow
| compound | MIC80 |
| --- | --- |
| N#Cc1ccccc1-c1nnc(SCCCN2CCN(CC(O)(Cn3cncn3)c3ccc(F)cc3F)CC2)o1 (stereo not given) | > 64 µg/mL |
| Cc1ccc(-c2nnc(SCCCN3CCN(CC(O)(Cn4cncn4)c4ccc(F)cc4F)CC3)o2)cc1 (stereo not given) | > 64 µg/mL |
| OC(CN1CCN(CCCSc2nnc(-c3ccc(Br)cc3)o2)CC1)(Cn1cncn1)c1ccc(F)cc1F (stereo not given) | > 64 µg/mL |

Task item: Please tell me: MIC80 of O=[N+]([O-])c1ccc(-c2nnc(SCCCN3CCN(CC(O)(Cn4cncn4)c4ccc(F)cc4F)CC3)o2)cc1 (stereo not given) , system Aspergillus fumigatus?
Reply: > 64 µg/mL

Task item: Missing value: MIC80, Aspergillus fumigatus, entry Cc1cccc(-c2nnc(SCCCN3CCN(CC(O)(Cn4cncn4)c4ccc(F)cc4F)CC3)o2)c1 (stereo not given) . Fill in?
Reply: > 64 µg/mL

Task item: Notebook entry, Aspergillus fumigatus assay: MIC80 of O=[N+]([O-])c1ccccc1-c1nnc(SCCCN2CCN(CC(O)(Cn3cncn3)c3ccc(F)cc3F)CC2)o1 (stereo not given) = ?
Reply: > 64 µg/mL

Task item: # query: MIC80 | item COc1cccc(-c2nnc(SCCCN3CCN(CC(O)(Cn4cncn4)c4ccc(F)cc4F)CC3)o2)c1 (stereo not given) | system: Aspergillus fumigatus
Reply: > 64 µg/mL

Task item: Return MIC80 measured with Aspergillus fumigatus given this compound: OC(CN1CCN(CCCSc2nnc(-c3ccccc3)o2)CC1)(Cn1cncn1)c1ccc(F)cc1F (stereo not given)
Reply: > 64 µg/mL
